Listed compounds paired with reported GI50
Tested on: SF-295 CNS
EXPERIMENT_NOTES: NCI tumour cell line growth inhibition, 48 h
READOUT_KIND: GI50

>>> value("O=C1/C(=C\\c2ccc(Cl)cc2)CN(C(=S)Nc2ccccc2)C/C1=C\\c1ccc(Cl)cc1")
"389 nM"
>>> value("COc1ccccc1C(=O)/C=C/c1cc2cccc(OC)c2[nH]c1=O")
"25.6 nM"
>>> value("O=[N+]([O-])c1ccc(Sc2ncccn2)c([N+](=O)[O-])c1")
"5930 nM"
>>> value("O/N=C1\\CCc2cc(-c3nc(C4CCNCC4)[nH]c3-c3ccncc3)ccc21")
"> 25000 nM"
>>> value("O=C(c1ccccc1)c1nn(-c2ccc(Cl)cc2)c2nc3nc(-c4ccccc4)cc(=O)n3nc12")
"23500 nM"
>>> value("COc1cc2cc(Oc3ccc(NC(=O)Nc4cccc(C(F)(F)F)c4)cc3)c(C)nc2cc1OCCN1CCCCC1")
"1800 nM"
>>> value("O=[N+]([O-])c1ccc(N/N=C\\c2cc(Cl)ccc2O)nc1")
"2150 nM"
>>> value("OB([O][Hg][c]1ccccc1)[O][Hg][c]1ccccc1")
"1600 nM"
>>> value("COc1ccc(/C(=C/c2cc(OC)c(OC)c(OC)c2)[N+](=O)[O-])cc1")
"2090 nM"
>>> value("COc1cc[nH]c1/C=C1\\C(=O)Nc2ccc(F)c(C#C[C@@H](O)[C@@H](N)[C@@H](C)O)c21")
"689 nM"
>>> value("COc1ccc(/C=C2\\CN(C(=O)CCN3CCC(=NO)CC3)C/C(=C\\c3ccc(OC)cc3)C2=O)cc1")
"2770 nM"
>>> value("CCCCCCCCCCCCCCCCCCNC(=O)[C@H]1CSC(c2ccc(OC)c(F)c2)N1 (some centres not stated)")
"26000 nM"
